Each entry below carries its recorded CC50 at 24 h.
assay: Cytotoxicity toward HepG2 cells (methylene blue staining); conditions: human, HepG2 cells

compoundStructure	CC50 at 24 h
O=c1c(O)c(-c2ccc(O)cc2O)oc2cc(O)cc(O)c12	> 200 µM
C[C@@H]1O[C@@H](OC[C@H]2O[C@@H](Oc3c(-c4ccc(O)c(O)c4)oc4cc(O)cc(O)c4c3=O)[C@H](O)[C@@H](O)[C@@H]2O)[C@H](O)[C@H](O)[C@H]1O	> 200 µM
O=c1c(-c2ccc(O)cc2)coc2cc(O)ccc12	> 100 µM
O=c1c(O)c(-c2ccccc2)oc2cc(O)cc(O)c12	> 80 µM
O=C1c2c(O)cc(O)cc2O[C@H](c2ccc(O)c(O)c2)[C@H]1O	> 200 µM

We now examine a further compound.
Exercise: Any idea what CC50 at 24 h was measured for O=C1C[C@@H](c2ccc(O)cc2)Oc2cc(O)cc(O)c21 ?
Solution: > 200 µM

----------
system: HepG2 cells; test: Cytotoxicity toward HepG2 cells (methylene blue staining); conditions: read-out: cytotoxicity CC50; Example 3; median cytotoxic concentration, 24 h
outcomeMeasure: CC50

Exercise: Fill in the blank: the reported CC50 of O=c1c(O[C@@H]2O[C@H](CO)[C@@H](O)[C@H](O)[C@H]2O)c(-c2ccc(O)c(O)c2)oc2cc(O)cc(O)c12 [Q-3-G, quercetin-3-β-D-glucoside] is ____.
Solution: > 200 µM

----------
tested on: HepG2 cells; test: Cellular antioxidant activity (CAA) assay: inhibition of peroxyl radical-induced DCFH oxidation; format: cell-based, human; conditions: Example 1, Table 1; PBS wash; pure phytochemical compounds; mean ± SD, n=3; read-out: EC50 for inhibition of peroxyl radical-induced DCFH oxidation
outcomeMeasure: EC50 (µM)
Report the figure in µM without appending any unit label.

Exercise: Request the reported EC50 associated with O=c1c(O)c(-c2ccc(O)c(O)c2)oc2cc(O)cc(O)c12
Solution: 5.09

----------
Listed compounds paired with reported log10(CAA value)
system: HepG2 cells; test: Cellular antioxidant activity (CAA) assay: inhibition of peroxyl radical-induced DCFH oxidation; format: cell-based, human; settings: Example 1; no PBS wash; pure compounds; EC50 converted to quercetin equivalents
In plain terms, each number is the log10 of measured CAA value in μmol QE/100 μmol.

compound	log10(CAA value)
O=C(O)/C=C/c1ccc(O)c(O)c1 [Caffeic acid, caffeic acid]	0.75
O=c1c(O)c(-c2ccc(O)cc2)oc2cc(O)cc(O)c12 [Kaempferol, kaempferol]	1.88
O=C1O[C@H]([C@@H](O)CO)C(O)=C1O [Ascorbic acid, ascorbic acid]	0.95
O=c1c(O)c(-c2cc(O)c(O)c(O)c2)oc2cc(O)cc(O)c12 [Myricetin, myricetin]	1.57
O=C(O)c1cc(O)c(O)c(O)c1 [Gallic acid]	0.96

Exercise: Given the entry O=c1cc(-c2ccc(O)c(O)c2)oc2cc(O)cc(O)c12 [Luteolin, luteolin] , report its measured log10(CAA value).
Solution: 1.35

----------
Test system: HepG2 cells
Assay: Cellular antioxidant activity (CAA) assay: inhibition of peroxyl radical-induced DCFH oxidation
Format: cell-based, human
Settings: Example 3, Table 7; no PBS wash
Protocol: Cells (e.g., human hepatocellular carcinoma cells; HepG2) are seeded at a density of e.g., 6×10^4/well on a 96-well microplate in 100 μL growth medium/well. […] 600 μM ABAP is then applied to the cells in 100 μL HBSS and the 96-well microplate is placed into a plate reader e.g., Fluoroskan Ascent FL plate-reader (ThermoLabsystems, Franklin, Mass.) at 37° C. Emission at 538 nm is measured with excitation at 485 nm, for example every 5 min for 1 h. […]
Listing of entries alongside the reported CAA.

For orientation, consider the following solved cases.
molecule	CAA
O=c1c(O)c(-c2ccc(O)c(O)c2)oc2cc(O)cc(O)c12	99.1 ± 4.8 μmol of QE/100 μmol
O=c1cc(-c2ccc(O)c(O)c2)oc2cc(O)cc(O)c12	37.1 ± 0.0 μmol of QE/100 μmol
Oc1cc(O)c2c(c1)O[C@H](c1ccc(O)c(O)c1)[C@H](O)C2 [Epicatechin, (−)-epicatechin]	1.9 ± 0.2 μmol of QE/100 μmol
O=c1c(O[C@@H]2O[C@H](CO)[C@@H](O)[C@H](O)[C@H]2O)c(-c2ccc(O)c(O)c2)oc2cc(O)cc(O)c12 [Q-3-G, quercetin-3-β-D-glucoside]	7.7 ± 0.1 μmol of QE/100 μmol

Now for a further molecule.
Exercise: What does the data say about its CAA? Entry: Oc1cc(O)c2c(c1)O[C@H](c1cc(O)c(O)c(O)c1)[C@H](O)C2 [EGC, (−)-epigallocatechin]
Solution: 12.1 ± 2.2 μmol of QE/100 μmol
